Give measured inhibition at 10 µM for each item. Keep answers brief.
Test system: A498
assay.remarks: NCI-60 SRB growth inhibition, one-dose and five-dose
Assay type: cell-based
protocol.conditions: Homo sapiens, A498, read-out: percent growth inhibition
Numbers only, in %.

// known answers, use as guide
1) CC(=O)Nc1ccc(/C=C/C(=O)c2cccc(NCc3csc4ccccc34)c2)cc1 | 9.33
2) Cc1ccc(CNc2cccc(C(=O)/C=C/c3cccnc3)c2)cc1 | 14.1
3) COc1ccc(CNc2cccc(C(=O)/C=C/c3ccc(NC(C)=O)cc3)c2)cc1OC | 11.5

// next entry
Short answer for `O=C(/C=C/c1c[nH]cn1)c1cccc(NCc2ccc3oc(=O)ccc3c2)c1` : inhibition at 10 µM was 4.82

====

Tested on: NCI-H322M
assay.remarks: NCI-60 SRB growth inhibition, one-dose and five-dose
Type: cell-based
protocol.conditions: Homo sapiens
quantity.measured: GI50 (µM)
One number for each entry, in µM.

Examples from the recorded data:
1. CC(=O)Nc1ccc(CNc2cccc(C(=O)/C=C/c3cccnc3)c2)cc1 | 13.7
2. CC(=O)Nc1ccc(/C=C/C(=O)c2cccc(NCc3ccc(C)cc3)c2)cc1 | 15.1
3. Cc1ccc(CNc2cccc(C(=O)/C=C/c3cccnc3)c2)cc1 | 15.7
4. COc1ccc(CNc2cccc(C(=O)/C=C/c3cccnc3)c2)cc1OC | 14.8
5. O=C(/C=C/c1cccnc1)c1cccc(NCc2ccc(CO)cc2)c1 | 15
6. O=C(/C=C/c1cccnc1)c1cccc(NCc2csc3ccccc23)c1 | 11.5
7. CC(=O)Nc1ccc(/C=C/C(=O)c2cccc(NCc3ccc(CO)cc3)c2)cc1 | 14.4
8. CC(=O)Nc1ccc(/C=C/C(=O)c2cccc(NCc3ccc(NC(C)=O)cc3)c2)cc1 | 13.8

Count: 2. Required value per item: GI50.
1. CC(=O)Nc1ccc(/C=C/C(=O)c2cccc(NCc3csc4ccccc34)c2)cc1
2. COc1ccc(CNc2cccc(C(=O)/C=C/c3ccc(NC(C)=O)cc3)c2)cc1OC

17.5
13.6

====

Tested on: UO-31
assay.remarks: NCI-60 SRB growth inhibition, one-dose and five-dose
Assay type: cell-based
protocol.conditions: Homo sapiens, UO-31, read-out: percent growth inhibition
Give inhibition at 10 µM for every item shown.
One number for each entry, in %.

1) CC(=O)Nc1ccc(/C=C/C(=O)c2cccc(NCc3ccc(C)cc3)c2)cc1 | 50.2
2) COc1ccc(CNc2cccc(C(=O)/C=C/c3cccnc3)c2)cc1OC | 65
3) COc1ccc(CNc2cccc(C(=O)/C=C/c3ccc(NC(C)=O)cc3)c2)cc1OC | 160

Form: molecule = `Cc1ccc(CNc2cccc(C(=O)/C=C/c3cccnc3)c2)cc1` ; inhibition at 10 µM = 47.5

====

System: M14
assay.remarks: NCI-60 SRB growth inhibition, one-dose and five-dose
Assay type: cell-based
protocol.conditions: Homo sapiens, M14
Would you mind telling me the reported GI50 of each entry?
Answers are plain numbers, in µM.

1. O=C(/C=C/c1cccnc1)c1cccc(NCc2ccc(CO)cc2)c1 | 12.4
2. CC(=O)Nc1ccc(/C=C/C(=O)c2cccc(NCc3ccc(NC(C)=O)cc3)c2)cc1 | 12.6
3. CC(=O)Nc1ccc(/C=C/C(=O)c2cccc(NCc3ccc(CO)cc3)c2)cc1 | 14.3
4. O=C(/C=C/c1cccnc1)c1cccc(NCc2csc3ccccc23)c1 | 4.14
5. CC(=O)Nc1ccc(/C=C/C(=O)c2cccc(NCc3ccc(C)cc3)c2)cc1 | 14
6. CC(=O)Nc1ccc(CNc2cccc(C(=O)/C=C/c3cccnc3)c2)cc1 | 2.91
7. COc1ccc(CNc2cccc(C(=O)/C=C/c3cccnc3)c2)cc1OC | 3.82
8. Cc1ccc(CNc2cccc(C(=O)/C=C/c3cccnc3)c2)cc1 | 13.1

Give one value of GI50 per listed compound.
1. CC(=O)Nc1ccc(/C=C/C(=O)c2cccc(NCc3csc4ccccc34)c2)cc1
2. COc1ccc(CNc2cccc(C(=O)/C=C/c3ccc(NC(C)=O)cc3)c2)cc1OC

[10.9, 1.72]
